Task for the reader: assign each of the following compounds its reported pKd.
By convention, pKd is the negative base-10 log of a molar concentration.

Prompt: Give pKd for this entry on Serine/threonine-protein kinase B-raf (Homo sapiens): Cc1ccc(/C=C/c2nc(N)nc(-c3ccccc3O)n2)o1
Sequence (P15056 whole entry): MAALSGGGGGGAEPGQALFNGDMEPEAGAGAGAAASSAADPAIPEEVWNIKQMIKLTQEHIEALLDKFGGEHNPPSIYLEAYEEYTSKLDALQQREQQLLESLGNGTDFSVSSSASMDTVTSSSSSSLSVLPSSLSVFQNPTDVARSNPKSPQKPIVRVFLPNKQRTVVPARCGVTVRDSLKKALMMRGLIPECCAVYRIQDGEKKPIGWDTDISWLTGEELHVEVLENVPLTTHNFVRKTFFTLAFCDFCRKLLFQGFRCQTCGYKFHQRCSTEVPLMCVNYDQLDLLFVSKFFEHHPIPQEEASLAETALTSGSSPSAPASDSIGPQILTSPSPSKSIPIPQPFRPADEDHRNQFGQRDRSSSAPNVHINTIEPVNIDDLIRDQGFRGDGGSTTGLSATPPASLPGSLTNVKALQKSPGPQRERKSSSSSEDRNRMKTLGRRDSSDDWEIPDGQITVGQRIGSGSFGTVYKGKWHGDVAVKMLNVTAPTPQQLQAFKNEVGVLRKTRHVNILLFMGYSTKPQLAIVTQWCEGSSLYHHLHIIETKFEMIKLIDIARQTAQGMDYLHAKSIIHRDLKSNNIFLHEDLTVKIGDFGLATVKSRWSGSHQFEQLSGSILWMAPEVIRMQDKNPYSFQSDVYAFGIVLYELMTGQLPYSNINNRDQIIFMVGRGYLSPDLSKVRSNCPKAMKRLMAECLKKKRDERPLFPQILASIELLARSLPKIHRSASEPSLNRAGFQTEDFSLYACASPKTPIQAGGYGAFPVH
Completion: 4.70

Prompt: Fill in pKd for NC(=O)c1ccc(Nc2nnc(-c3ccc(O)cc3)c3ccccc23)cc1 tested with Serine/threonine-protein kinase B-raf (Homo sapiens).
Completion: 5.68
